# Assay remarks: Single dose PK study in male Wister-Han rats
# Type: in vivo
# Test conditions: male, Wister-Han, rat, plasma, po, 5 mg/kg, 5 mg/kg oral dosing of active form
# Experimental: The single dose PK in Male Wister-Han Rats was performed to assess pharmacokinetic properties of tested compounds. Two groups of animals were dosed via Gavage (POE) of the respective compound. […] The pharmacokinetic parameters were calculated using non-compartmental module of WinNonlin® Professional 6.2. The peak concentration (Cmax) was recorded directly from experimental observations. […]
Metric: AUC(0-t)

Query: Could you please provide reported AUC(0-t) for CCS(=O)(=O)c1nc(N)c2[nH]c(=O)n(Cc3ccc(C)cc3)c2n1 [Example S-3, reference compound] ? Thanks!
Result: 0.095 µM·h

Query: Could you please provide reported AUC(0-t) for CCCCOc1nc(N)c2c(n1)N(Cc1cccc(CN3CCCC3)c1)CC(=O)N2 [GS9620, reference compound] ? Thanks!
Result: 0.316 µM·h

Query: Could you please provide reported AUC(0-t) for CCS(=N)(=O)c1nc(N)c2[nH]c(=O)n(Cc3ccc(F)cc3)c2n1 (single isomer, unassigned) [Compound 45e-A] ? Thanks!
Result: 0.767 µM·h

Query: Could you please provide reported AUC(0-t) for CC[S@@](=N)(=O)c1nc(N)c2[nH]c(=O)n(Cc3ccc(Cl)cc3)c2n1 (single isomer, unassigned) [Compound 41c-B] ? Thanks!
Result: 0.0558 µM·h

Query: Could you please provide reported AUC(0-t) for CC[S@@](=N)(=O)c1nc(N)c2[nH]c(=O)n(Cc3ccc(C)cc3)c2n1 (single isomer, unassigned) [Compound 43e-A] ? Thanks!
Result: 0.077 µM·h

State recorded AUC(0-t) for all listed molecules.
1. CC[S@](=N)(=O)c1nc(N)c2[nH]c(=O)n(Cc3ccc(Cl)cc3)c2n1 (single isomer, unassigned) [Compound 41c-A]
2. CCS(=O)(=O)c1nc(N)c2[nH]c(=O)n(Cc3ccc(Cl)cc3)c2n1 [Example S-2, reference compound]

Result:
1. 0.242 µM·h
2. 0.748 µM·h
